Ref: ChEMBL document CHEMBL5143740

- EXPERIMENT SUMMARY: Tmax in Sprague-Dawley rat at 1 mg/kg, iv measured after 24 hrs
- Assay type: ADME, organism-based
- TEST CONTEXT: in vivo
MEASURED ENDPOINT: Tmax (s)
Answers are plain numbers, in s.

Bench note: what Tmax did `Nc1nc2cc(-c3nc(N4CCOCC4)nc(N4CCOCC4)n3)ccc2o1` show?
10.8

---

- MEASURED ON: Phosphatidylinositol 4,5-bisphosphate 3-kinase catalytic subunit delta isoform (Homo sapiens, UniProt O00329)
- Sequence (O00329 whole entry, canonical isoform): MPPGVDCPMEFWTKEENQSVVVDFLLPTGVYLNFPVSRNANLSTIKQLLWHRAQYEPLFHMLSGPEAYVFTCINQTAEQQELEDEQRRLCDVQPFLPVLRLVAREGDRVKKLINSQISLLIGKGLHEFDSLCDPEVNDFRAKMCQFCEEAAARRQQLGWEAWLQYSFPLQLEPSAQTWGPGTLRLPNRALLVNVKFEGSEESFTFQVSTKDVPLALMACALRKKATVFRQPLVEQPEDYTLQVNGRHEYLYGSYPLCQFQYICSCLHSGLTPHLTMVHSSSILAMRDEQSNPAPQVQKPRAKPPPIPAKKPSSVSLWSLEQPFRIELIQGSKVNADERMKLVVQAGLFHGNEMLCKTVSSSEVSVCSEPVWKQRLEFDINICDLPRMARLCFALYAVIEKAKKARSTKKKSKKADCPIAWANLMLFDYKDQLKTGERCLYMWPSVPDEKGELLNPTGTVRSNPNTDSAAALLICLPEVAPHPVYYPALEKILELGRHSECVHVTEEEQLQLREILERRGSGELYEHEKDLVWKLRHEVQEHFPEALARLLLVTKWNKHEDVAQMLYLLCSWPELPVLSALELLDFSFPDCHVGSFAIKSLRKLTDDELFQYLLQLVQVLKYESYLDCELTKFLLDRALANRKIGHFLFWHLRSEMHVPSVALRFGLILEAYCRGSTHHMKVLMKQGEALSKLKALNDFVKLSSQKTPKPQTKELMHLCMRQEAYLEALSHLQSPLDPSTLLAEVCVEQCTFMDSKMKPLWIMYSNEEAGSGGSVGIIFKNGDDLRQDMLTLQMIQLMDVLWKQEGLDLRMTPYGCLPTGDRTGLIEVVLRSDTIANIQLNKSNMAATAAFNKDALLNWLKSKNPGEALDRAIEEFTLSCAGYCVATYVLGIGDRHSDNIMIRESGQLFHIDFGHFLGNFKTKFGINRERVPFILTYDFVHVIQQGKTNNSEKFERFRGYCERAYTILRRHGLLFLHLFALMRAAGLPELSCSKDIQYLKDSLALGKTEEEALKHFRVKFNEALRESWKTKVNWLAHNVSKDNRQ
- EXPERIMENT SUMMARY: Inhibition of PI3Kdelta (unknown origin) in presence of [33P]-ATP incubated for 2 hrs by hotspot kinase assay
Would you mind telling me the reported IC50 of each entry?
Answers are plain numbers, in nM.

O=C(O)c1ccc(CNc2nc3ccc(-c4nc(N5CCOCC5)nc(N5CCOCC5)n4)cc3o2)cc1 | 51

Bench note: what IC50 did `Nc1nc2cc(-c3nc(N4CCOCC4)nc(N4CCOCC4)n3)ccc2o1` show?
153

---

- MEASURED ON: Phosphatidylinositol 4,5-bisphosphate 3-kinase catalytic subunit alpha isoform (Homo sapiens, UniProt P42336)
- Sequence (P42336 whole entry, canonical isoform): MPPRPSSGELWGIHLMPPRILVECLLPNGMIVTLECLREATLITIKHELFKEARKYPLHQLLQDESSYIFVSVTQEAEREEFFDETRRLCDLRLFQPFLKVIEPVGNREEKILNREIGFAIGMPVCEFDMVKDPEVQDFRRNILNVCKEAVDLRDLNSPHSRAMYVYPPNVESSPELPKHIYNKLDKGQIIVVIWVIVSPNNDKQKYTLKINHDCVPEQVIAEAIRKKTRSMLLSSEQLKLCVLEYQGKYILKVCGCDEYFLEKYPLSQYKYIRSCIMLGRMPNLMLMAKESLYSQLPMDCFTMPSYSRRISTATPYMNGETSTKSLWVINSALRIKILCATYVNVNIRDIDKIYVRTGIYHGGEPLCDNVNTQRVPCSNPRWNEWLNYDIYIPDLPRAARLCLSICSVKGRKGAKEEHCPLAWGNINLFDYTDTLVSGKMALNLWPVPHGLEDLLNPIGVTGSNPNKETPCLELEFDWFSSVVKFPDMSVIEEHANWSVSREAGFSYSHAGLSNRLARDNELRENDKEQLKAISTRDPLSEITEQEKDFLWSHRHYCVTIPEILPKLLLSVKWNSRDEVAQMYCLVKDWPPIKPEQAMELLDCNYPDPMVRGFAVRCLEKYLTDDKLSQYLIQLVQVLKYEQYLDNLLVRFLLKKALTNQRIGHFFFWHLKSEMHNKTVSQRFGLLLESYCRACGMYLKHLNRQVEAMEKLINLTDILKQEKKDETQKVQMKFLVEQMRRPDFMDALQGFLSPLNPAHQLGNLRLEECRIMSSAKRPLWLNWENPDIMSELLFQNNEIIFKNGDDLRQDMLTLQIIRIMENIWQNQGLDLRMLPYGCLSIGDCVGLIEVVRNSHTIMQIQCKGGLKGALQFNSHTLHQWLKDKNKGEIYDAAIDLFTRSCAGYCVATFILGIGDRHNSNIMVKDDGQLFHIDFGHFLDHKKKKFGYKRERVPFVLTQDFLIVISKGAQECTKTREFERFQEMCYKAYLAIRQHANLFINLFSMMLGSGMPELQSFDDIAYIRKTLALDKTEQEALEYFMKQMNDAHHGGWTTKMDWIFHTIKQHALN
- EXPERIMENT SUMMARY: Inhibition of PI3Kalpha (unknown origin) using PIP2 as substrate in presence of ATP measured after 1 hr by ADP-Glo assay
Would you mind telling me the reported IC50 of each entry?
Numbers only, in µM.

I would be grateful if you could provide IC50 for each of the following entries.
1. CC(=O)Nc1nc2cc(-c3nc(N4CCOCC4)nc(N4CCOCC4)n3)ccc2o1
2. CC(C)C(=O)Nc1nc2cc(-c3nc(N4CCOCC4)nc(N4CCOCC4)n3)ccc2o1
3. c1ccc(CNc2nc3cc(-c4nc(N5CCOCC5)nc(N5CCOCC5)n4)ccc3o2)cc1
4. CC(=O)N1CCN(c2nc(-c3ccc4oc(N)nc4c3)nc(N3CCOCC3)n2)CC1
5. Nc1nc2cc(-c3nc(NC4CCOCC4)nc(N4CCOCC4)n3)ccc2o1

1: 0.066; 2: 0.397; 3: 0.063; 4: 0.023; 5: 4.24

---

- EXPERIMENT SUMMARY: Half life in Sprague-Dawley rat at 1 mg/kg, iv measured after 24 hrs
- Format: ADME, organism-based
- TEST CONTEXT: in vivo
MEASURED ENDPOINT: half-life
Enter the number, and then the unit.

Bench note: what half-life did `Nc1nc2cc(-c3nc(N4CCOCC4)nc(N4CCOCC4)n3)ccc2o1` show?
377 min

---

- EXPERIMENT SUMMARY: Cmax in Sprague-Dawley rat at 10 mg/kg, po measured after 24 hrs
- Type: ADME, organism-based
- Parameters: time 24 hrs, dose 10 mg/kg, route po
- TEST CONTEXT: in vivo
MEASURED ENDPOINT: Cmax (ng/mL)
Give bare numbers, in ng/mL.

Bench note: what Cmax did `Nc1nc2cc(-c3nc(N4CCOCC4)nc(N4CCOCC4)n3)ccc2o1` show?
2260

---

- MEASURED ON: Phosphatidylinositol 4,5-bisphosphate 3-kinase catalytic subunit beta isoform (Homo sapiens, UniProt P42338)
- Sequence (P42338 whole entry, canonical isoform): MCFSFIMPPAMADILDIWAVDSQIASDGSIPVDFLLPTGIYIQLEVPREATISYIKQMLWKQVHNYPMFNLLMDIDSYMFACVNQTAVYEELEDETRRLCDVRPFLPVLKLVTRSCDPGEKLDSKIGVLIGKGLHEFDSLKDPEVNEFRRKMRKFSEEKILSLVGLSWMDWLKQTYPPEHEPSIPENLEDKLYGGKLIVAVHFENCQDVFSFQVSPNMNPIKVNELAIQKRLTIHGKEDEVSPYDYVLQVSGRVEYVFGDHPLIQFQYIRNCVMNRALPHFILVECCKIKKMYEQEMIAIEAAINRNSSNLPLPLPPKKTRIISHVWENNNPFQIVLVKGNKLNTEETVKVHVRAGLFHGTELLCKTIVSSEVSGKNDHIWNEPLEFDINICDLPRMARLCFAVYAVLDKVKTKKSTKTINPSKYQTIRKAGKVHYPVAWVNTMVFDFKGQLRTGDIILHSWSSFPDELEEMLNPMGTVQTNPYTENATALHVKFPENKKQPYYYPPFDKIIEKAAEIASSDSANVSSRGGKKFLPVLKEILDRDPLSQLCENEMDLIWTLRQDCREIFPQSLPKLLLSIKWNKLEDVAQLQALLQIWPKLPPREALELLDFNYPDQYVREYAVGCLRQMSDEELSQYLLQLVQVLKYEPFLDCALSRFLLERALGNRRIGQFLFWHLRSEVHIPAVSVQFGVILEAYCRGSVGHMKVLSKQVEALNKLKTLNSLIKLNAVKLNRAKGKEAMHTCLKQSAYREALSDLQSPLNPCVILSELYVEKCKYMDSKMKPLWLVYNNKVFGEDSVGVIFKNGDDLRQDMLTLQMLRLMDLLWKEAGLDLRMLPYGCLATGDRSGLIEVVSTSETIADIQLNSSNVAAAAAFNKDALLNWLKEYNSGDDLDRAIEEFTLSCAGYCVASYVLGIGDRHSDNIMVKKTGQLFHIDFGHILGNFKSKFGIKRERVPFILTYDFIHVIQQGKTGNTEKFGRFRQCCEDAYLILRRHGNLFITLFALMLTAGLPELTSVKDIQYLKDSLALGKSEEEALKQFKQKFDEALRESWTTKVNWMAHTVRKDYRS
- EXPERIMENT SUMMARY: Inhibition of PI3Kbeta (unknown origin) in presence of [33P]-ATP incubated for 2 hrs by hotspot kinase assay
MEASURED ENDPOINT: IC50 (nM)
Give bare numbers, in nM.

O=C(O)c1ccc(CNc2nc3ccc(-c4nc(N5CCOCC5)nc(N5CCOCC5)n4)cc3o2)cc1 | 100

Bench note: what IC50 did `Nc1nc2cc(-c3nc(N4CCOCC4)nc(N4CCOCC4)n3)ccc2o1` show?
146
